assay remarks: Cytotoxicity against human SH-SY5Y cells assessed as cell viability at 25 uM after 24 hrs by MTT assay
Format: cell-based
test settings: read-out: Activity
quantity measured: viability at 24 h, 25 µM (%)
Unit % implied. Number only.

(Q) Give the measured viability at 24 h, 25 µM of "COc1cc(/C=C/c2ccc(OCCCCCCN3CCCC3)cc2)cc(OC)c1" .
(A) 93.2

* * *

assay remarks: Cytotoxicity against human SH-SY5Y cells assessed as cell viability at 1 uM after 24 hrs by MTT assay
Format: cell-based
test settings: read-out: Activity
quantity measured: viability at 24 h, 1 µM
Reply with the number and its unit after it.

(Q) Give the measured viability at 24 h, 1 µM of "COc1cc(/C=C/c2ccc(OCCCCCCN3CCCC3)cc2)cc(OC)c1" .
(A) 97%

* * *

Exercise: for every item that follows, state its recorded Ratio IC50.
Species on record: Homo sapiens
assay remarks: Selectivity index, ratio of IC50 for human MAO-B to IC50 for human MAO-A
Reply with just the number.

(Q) Give the measured Ratio IC50 of "CCN(CCCCCCOc1ccc(/C=C/c2cc(OC)cc(OC)c2)cc1)Cc1ccccc1" .
(A) 0.65

(Q) Give the measured Ratio IC50 of "COc1cc(/C=C/c2ccc(OCCCCCCN(C)Cc3ccccc3)cc2)cc(OC)c1" .
(A) 0.45

(Q) Give the measured Ratio IC50 of "COc1cc(/C=C/c2ccc(OCCCCCCN3CCCC3)cc2)cc(OC)c1" .
(A) 0.7

(Q) Give the measured Ratio IC50 of "COc1cc(/C=C/c2ccc(OCCCCCCN3CCCCC3)cc2)cc(OC)c1" .
(A) 0.48

(Q) Give the measured Ratio IC50 of COc1cc(/C=C/c2ccc(OCCCCCCN3CCCCC3C)cc2)cc(OC)c1 (stereo not given) .
(A) 0.67

(Q) Give the measured Ratio IC50 of "CCCN(CCC)CCCCCCOc1ccc(/C=C/c2cc(OC)cc(OC)c2)cc1" .
(A) 1.03

(Q) Give the measured Ratio IC50 of "COc1cc(/C=C/c2ccc(OCCCCCN(C)Cc3ccccc3)cc2)cc(OC)c1" .
(A) 0.16

* * *

Exercise: for every item that follows, state its recorded Ratio IC50.
Species on record: Homo sapiens
assay remarks: Selectivity index, ratio of IC50 for human MAO-B to IC50 for human MAO-A
Reply with just the number.

(Q) Give the measured Ratio IC50 of "CCN(CC)CCCCCCOc1ccc(/C=C/c2cc(OC)cc(OC)c2)cc1" .
(A) 0.31

(Q) Give the measured Ratio IC50 of "COc1cc(/C=C/c2ccc(OCCCCCCN(C)C)cc2)cc(OC)c1" .
(A) 0.2

* * *

system name: Amine oxidase [flavin-containing] A (Homo sapiens, UniProt P21397)
Sequence (P21397 whole entry): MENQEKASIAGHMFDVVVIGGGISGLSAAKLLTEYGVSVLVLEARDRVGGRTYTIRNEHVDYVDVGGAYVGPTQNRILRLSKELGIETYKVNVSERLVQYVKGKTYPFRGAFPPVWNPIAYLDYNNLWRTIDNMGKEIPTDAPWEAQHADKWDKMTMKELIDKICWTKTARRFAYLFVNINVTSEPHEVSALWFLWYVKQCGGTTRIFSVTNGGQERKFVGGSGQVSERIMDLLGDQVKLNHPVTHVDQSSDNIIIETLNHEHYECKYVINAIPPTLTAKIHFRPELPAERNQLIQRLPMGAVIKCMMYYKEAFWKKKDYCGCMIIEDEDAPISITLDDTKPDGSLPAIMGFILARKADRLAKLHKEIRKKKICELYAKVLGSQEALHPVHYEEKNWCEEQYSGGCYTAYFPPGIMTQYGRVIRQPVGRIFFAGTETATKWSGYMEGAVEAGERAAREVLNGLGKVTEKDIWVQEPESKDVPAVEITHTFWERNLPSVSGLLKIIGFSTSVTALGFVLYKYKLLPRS
quantity measured: IC50 (µM)
Unit µM implied. Number only.

(Q) Give the measured IC50 of "COc1cc(/C=C/c2ccc(OCCCCCCN(C)Cc3ccccc3)cc2)cc(OC)c1" .
(A) 90.4

(Q) Give the measured IC50 of "COc1cc(/C=C/c2ccc(OCCCCCCN3CCCCC3)cc2)cc(OC)c1" .
(A) 29.8

(Q) Give the measured IC50 of "CCCN(CCC)CCCCCCOc1ccc(/C=C/c2cc(OC)cc(OC)c2)cc1" .
(A) 89.4

(Q) Give the measured IC50 of "COc1cc(/C=C/c2ccc(OCCCCCCN3CCCC3)cc2)cc(OC)c1" .
(A) 17.6

(Q) Give the measured IC50 of "COc1cc(/C=C/c2ccc(OCCCCCN(C)Cc3ccccc3)cc2)cc(OC)c1" .
(A) 97.4

(Q) Give the measured IC50 of "COc1cc(/C=C/c2ccc(OCCCCCCN(C)C)cc2)cc(OC)c1" .
(A) 37.5

(Q) Give the measured IC50 of "CCN(CC)CCCCCCOc1ccc(/C=C/c2cc(OC)cc(OC)c2)cc1" .
(A) 33.1

(Q) Give the measured IC50 of "CCN(CCCCCCOc1ccc(/C=C/c2cc(OC)cc(OC)c2)cc1)Cc1ccccc1" .
(A) 89.6

(Q) Give the measured IC50 of COc1cc(/C=C/c2ccc(OCCCCCCN3CCCCC3C)cc2)cc(OC)c1 (configuration not stated) .
(A) 24.3
